# Test Description: LD50 of representative compounds
# Assay Context: in vivo
This listing pairs compounds with measured LD50.
Observation Type: LD50 (mg/kg)

compound="CC1CC(OC(=O)CN2CCCC2=O)CC(C)(C)C1 (mixture of isomers)" unit_of_measure=mg/kg measured_value=3170
compound="CCC(C(=O)OC1CC(C)CC(C)(C)C1)N1CCCC1=O (centres unmarked)" unit_of_measure=mg/kg measured_value=2850
